target: acetylcholinesterase (Homo sapiens); test: Acetylcholinesterase-inhibiting capacity, colorimetric method of Ellman et al.; format: biochemical; settings: Table 8; with respect to tacrine under the same conditions
Sequence (P22303 32-614): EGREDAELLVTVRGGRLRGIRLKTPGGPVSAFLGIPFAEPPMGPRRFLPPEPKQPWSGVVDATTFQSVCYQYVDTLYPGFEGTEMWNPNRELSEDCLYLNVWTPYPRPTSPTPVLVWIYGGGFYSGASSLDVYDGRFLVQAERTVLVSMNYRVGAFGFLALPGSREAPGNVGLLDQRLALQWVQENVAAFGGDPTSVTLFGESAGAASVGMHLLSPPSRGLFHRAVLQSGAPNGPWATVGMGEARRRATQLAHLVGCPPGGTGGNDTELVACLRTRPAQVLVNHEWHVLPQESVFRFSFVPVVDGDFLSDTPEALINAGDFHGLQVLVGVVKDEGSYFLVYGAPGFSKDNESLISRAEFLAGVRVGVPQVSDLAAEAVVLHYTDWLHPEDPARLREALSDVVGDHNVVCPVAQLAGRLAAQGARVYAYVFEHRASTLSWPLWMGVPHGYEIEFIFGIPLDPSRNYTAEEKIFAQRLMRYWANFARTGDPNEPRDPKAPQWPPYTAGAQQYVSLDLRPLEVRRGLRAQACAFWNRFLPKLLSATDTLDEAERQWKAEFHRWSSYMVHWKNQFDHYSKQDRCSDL
Reported IC50 tacrine/IC50 compound (ratio of the IC50 of tacrine to the IC50 of each compound) values for the following compounds.
Write the number on its own, no unit after it.

INSERT INTO results (compound, quantitative_readout) VALUES
  ('CC1=CC2Cc3nc4cccc(F)c4c(N)c3C(C1)C2 (stereo not shown)', 4.14);

# input Find the recorded IC50 tacrine/IC50 compound (ratio of the IC50 of tacrine to the IC50 of each compound) belonging to Nc1c2c(nc3ccccc13)CC1C=C(c3ccccc3)CC2C1 (stereo not shown) and report it.
# output 1.03

# input Find the recorded IC50 tacrine/IC50 compound (ratio of the IC50 of tacrine to the IC50 of each compound) belonging to CC1=CC2Cc3nc4cc(F)ccc4c(N)c3C(C1)C2 (stereo not shown) and report it.
# output 15.28

# input Find the recorded IC50 tacrine/IC50 compound (ratio of the IC50 of tacrine to the IC50 of each compound) belonging to CCC1=CC2Cc3nc4ccccc4c(N)c3C(C1)C2 (racemic) and report it.
# output 3.38
